# test.target: Proteasome subunit beta (Trypanosoma cruzi)
# test: Trypanosoma cruzi proteasome chymotrypsin-like activity (TcProtChymo) assay. Note: in the data most compounds retested in dose-response had high values.
# Assay type: functional
# Set-up: scale not given: direction of the effect not stated beside the values
# measurement.parameters: 9.37 µM

compound	unit.info	Percent Effect
COc1ccc2c(c1)C1(CCN(Cc3ccncc3)CC1)N(C)CC2	%	14.4
Cc1nc(NC2CCCC2)cc(C2CCN2C(=O)c2cccnc2)n1 (centres undefined)	%	10.8
O=C(C1CCOCC1)N1CCc2ncnc(-c3ccc(F)cc3)c2CC1	%	8.89
COc1cccc(COCC(O)CN2CC(n3cccn3)C2)c1 (centres undefined)	%	10.4
O=C(c1ccccn1)N1CCCC(c2nccn2Cc2ccncc2)C1 (centres undefined)	%	19.7
CC(C)(C)c1nnc(CN2CCCC2c2noc(C3CC3)n2)o1 (centres undefined)	%	8.08
COc1nn(C)c2c1CCCN(C(=O)c1cc[nH]n1)C2	%	22.3
CCC(C)(C)NC(=O)CN(C)C(c1cccc(F)c1)c1ccccn1 (centres undefined)	%	0.845
O=c1nc(SCc2cccnc2)c2c(n1CCO)CCC2	%	15.8
Cc1ccc(C2COCCN2C(=O)c2ccc(CN(C)C)cc2)o1 (centres undefined)	%	4.01
CN1CC(=O)N(c2cccnc2)CC12CCN(C(=O)c1cccnc1)C2 (centres undefined)	%	14.5
Cc1cc(-c2nnn(CCC(N)=O)n2)ccc1F	%	15.3
Cc1ccoc1C(=O)N1CCO[C@H]2[C@H](OCCN(C)C)CC[C@@H]21	%	5.98
Cc1cnc(NC(=O)N2CCCC2)s1	%	15.4
COc1ccc(Cl)cc1NCC(=O)NCCc1ccccn1	%	1.62
COc1ccc(Br)c(C(=O)N2CCC(c3n[nH]c(C4CC4)n3)CC2)c1	%	11.8
CS(=O)(=O)N1CCCC12CCCN(S(=O)(=O)c1ccc(F)cc1)C2 (centres undefined)	%	10.7
Cc1ccccc1CS(=O)(=O)CC(=O)NC1CCCCNC1=O (centres undefined)	%	8.62
CC(C)N(C)S(=O)(=O)N(C)Cc1ccc2c(c1)OCO2	%	12.7
Cc1nc(CN2CCCN(C(=O)C(C)OCC3CC3)CC2)cs1 (centres undefined)	%	10.6
Cc1ccc(N2CC3(CCN(c4nccs4)C3)C2)nn1	%	14
CCc1nccn1C1CCCN(C(=O)c2ccc3[nH]c(=O)[nH]c3c2)C1 (centres undefined)	%	5.41
Cc1cc(-c2cnn(CCNC(=O)c3cccnc3)c2C2CC2)on1	%	-1.09
CC(C)c1nn(C)c(Cl)c1CNCC(O)c1cccc(F)c1 (centres undefined)	%	15.8

---

Below is a list of entries, each paired with its recorded Percent Effect value.
# test.target: Tyrosyl-tRNA synthetase, putative (Trypanosoma cruzi (strain CL Brener)) (UniProt Q4DSP6)
# test: Trypanosoma cruzi tyrosyl tRNA synthetase (TcYRS) SOP
# Type: functional
# Parameters: scale not given: direction of the effect not stated beside the values
# measurement.parameters: 30 µM
value.kind: Percent Effect (%)

compound	value.kind	unit.info	observed.value
c1ccc(CCCN2CC(n3cccn3)C2)cc1	Percent Effect	%	23.2
CC(O)CN1CCN(Cc2nnc(C3CC3)o2)CC1 (configuration not stated)	Percent Effect	%	21.5
Cn1cnnc1S(=O)(=O)C1CCN(S(=O)(=O)c2c(Cl)cccc2Cl)CC1	Percent Effect	%	0
O=C(O)c1ccn(-c2ccccc2NS(=O)(=O)c2ccccc2)n1	Percent Effect	%	3.7
Cc1cc(C)n(CC2CCCN2C(=O)c2c[nH]c3ncccc23)n1 (configuration not stated)	Percent Effect	%	-6.1
COc1ccc2cc(C3CN(C(=O)C4CCOCC4)CCO3)ccc2c1 (configuration not stated)	Percent Effect	%	12.2
Cc1cc(NC(=O)CCc2ccsc2)n(C)n1	Percent Effect	%	7.69
c1cc(-c2cnccn2)cc(-c2ccn(CCN3CCCC3)n2)c1	Percent Effect	%	7.32
Cc1ccc(S(=O)(=O)N2CSCC2C(=O)N(C)C2CC2)cc1Cl (configuration not stated)	Percent Effect	%	3.7
Cc1nc[nH]c1-c1nc2cc(S(=O)(=O)N3CCCC3)ccc2n1C	Percent Effect	%	17.5
CCOc1nnc(CN2CCC(N(C)Cc3noc(C)n3)C2)s1 (configuration not stated)	Percent Effect	%	6.17
CN(C)CC1CN(c2ncnc3[nH]ccc23)CCO1 (configuration not stated)	Percent Effect	%	15.2

---

// reported Percent Effect for each item listed
# test.target: Tyrosyl-tRNA synthetase, putative (Trypanosoma cruzi (strain CL Brener)) (UniProt Q4DSP6)
# Sequence (whole entry): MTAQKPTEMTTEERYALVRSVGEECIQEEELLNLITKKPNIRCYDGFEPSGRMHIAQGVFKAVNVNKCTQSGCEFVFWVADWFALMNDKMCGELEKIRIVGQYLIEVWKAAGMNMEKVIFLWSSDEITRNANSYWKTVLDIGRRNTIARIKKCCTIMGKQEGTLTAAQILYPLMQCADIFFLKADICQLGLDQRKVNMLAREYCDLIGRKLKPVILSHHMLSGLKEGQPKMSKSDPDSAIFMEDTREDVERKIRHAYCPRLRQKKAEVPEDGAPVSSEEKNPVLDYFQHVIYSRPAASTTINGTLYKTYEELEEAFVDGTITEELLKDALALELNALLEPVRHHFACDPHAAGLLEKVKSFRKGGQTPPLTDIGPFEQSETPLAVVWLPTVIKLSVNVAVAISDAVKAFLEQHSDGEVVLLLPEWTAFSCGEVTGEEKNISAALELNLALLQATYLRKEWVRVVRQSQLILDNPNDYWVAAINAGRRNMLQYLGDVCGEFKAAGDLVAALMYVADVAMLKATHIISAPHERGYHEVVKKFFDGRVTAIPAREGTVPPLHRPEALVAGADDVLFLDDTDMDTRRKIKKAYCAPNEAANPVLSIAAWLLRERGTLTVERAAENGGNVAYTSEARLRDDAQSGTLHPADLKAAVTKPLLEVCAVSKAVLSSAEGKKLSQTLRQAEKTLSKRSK
# test: Trypanosoma cruzi tyrosyl tRNA synthetase (TcYRS) SOP
# Assay type: functional
# Set-up: scale not given: direction of the effect not stated beside the values
# measurement.parameters: 30 µM

compound	test.target	Percent Effect [%]
CN(C)C(=O)[C@H]1C[C@@H]2CCN(C3CCOCC3)C[C@H]2O1	Tyrosyl-tRNA synthetase, putative (Trypanosoma cruzi (strain CL Brener)) (UniProt Q4DSP6)	-5
Cc1noc(C)c1C(=O)NCC(C)N(C)C (stereo unspecified)	Tyrosyl-tRNA synthetase, putative (Trypanosoma cruzi (strain CL Brener)) (UniProt Q4DSP6)	13.4
Cc1nc(N2CCN(C)CC2)ncc1C(=O)N1CC(C)(C)C(C)(O)C1 (stereo unspecified)	Tyrosyl-tRNA synthetase, putative (Trypanosoma cruzi (strain CL Brener)) (UniProt Q4DSP6)	-16.1
Cc1nc(Nc2ncccn2)cc(C2CCCN2C2CCOCC2)n1 (stereo unspecified)	Tyrosyl-tRNA synthetase, putative (Trypanosoma cruzi (strain CL Brener)) (UniProt Q4DSP6)	11.7
Cn1cc(Cl)cc1C(=O)N1CCN(Cc2ccsc2)CC1	Tyrosyl-tRNA synthetase, putative (Trypanosoma cruzi (strain CL Brener)) (UniProt Q4DSP6)	4.88
CCCNC(=O)CNc1cc(C#N)ccc1OCC	Tyrosyl-tRNA synthetase, putative (Trypanosoma cruzi (strain CL Brener)) (UniProt Q4DSP6)	21.5

---

Listed below: Percent Effect values for each entry.
# test.target: Chromo domain-containing protein 1 (Saccharomyces cerevisiae (strain ATCC 204508 / S288c) (Baker's yeast)) (UniProt P32657)
# Sequence (P32657 whole entry, the tested form may be a part): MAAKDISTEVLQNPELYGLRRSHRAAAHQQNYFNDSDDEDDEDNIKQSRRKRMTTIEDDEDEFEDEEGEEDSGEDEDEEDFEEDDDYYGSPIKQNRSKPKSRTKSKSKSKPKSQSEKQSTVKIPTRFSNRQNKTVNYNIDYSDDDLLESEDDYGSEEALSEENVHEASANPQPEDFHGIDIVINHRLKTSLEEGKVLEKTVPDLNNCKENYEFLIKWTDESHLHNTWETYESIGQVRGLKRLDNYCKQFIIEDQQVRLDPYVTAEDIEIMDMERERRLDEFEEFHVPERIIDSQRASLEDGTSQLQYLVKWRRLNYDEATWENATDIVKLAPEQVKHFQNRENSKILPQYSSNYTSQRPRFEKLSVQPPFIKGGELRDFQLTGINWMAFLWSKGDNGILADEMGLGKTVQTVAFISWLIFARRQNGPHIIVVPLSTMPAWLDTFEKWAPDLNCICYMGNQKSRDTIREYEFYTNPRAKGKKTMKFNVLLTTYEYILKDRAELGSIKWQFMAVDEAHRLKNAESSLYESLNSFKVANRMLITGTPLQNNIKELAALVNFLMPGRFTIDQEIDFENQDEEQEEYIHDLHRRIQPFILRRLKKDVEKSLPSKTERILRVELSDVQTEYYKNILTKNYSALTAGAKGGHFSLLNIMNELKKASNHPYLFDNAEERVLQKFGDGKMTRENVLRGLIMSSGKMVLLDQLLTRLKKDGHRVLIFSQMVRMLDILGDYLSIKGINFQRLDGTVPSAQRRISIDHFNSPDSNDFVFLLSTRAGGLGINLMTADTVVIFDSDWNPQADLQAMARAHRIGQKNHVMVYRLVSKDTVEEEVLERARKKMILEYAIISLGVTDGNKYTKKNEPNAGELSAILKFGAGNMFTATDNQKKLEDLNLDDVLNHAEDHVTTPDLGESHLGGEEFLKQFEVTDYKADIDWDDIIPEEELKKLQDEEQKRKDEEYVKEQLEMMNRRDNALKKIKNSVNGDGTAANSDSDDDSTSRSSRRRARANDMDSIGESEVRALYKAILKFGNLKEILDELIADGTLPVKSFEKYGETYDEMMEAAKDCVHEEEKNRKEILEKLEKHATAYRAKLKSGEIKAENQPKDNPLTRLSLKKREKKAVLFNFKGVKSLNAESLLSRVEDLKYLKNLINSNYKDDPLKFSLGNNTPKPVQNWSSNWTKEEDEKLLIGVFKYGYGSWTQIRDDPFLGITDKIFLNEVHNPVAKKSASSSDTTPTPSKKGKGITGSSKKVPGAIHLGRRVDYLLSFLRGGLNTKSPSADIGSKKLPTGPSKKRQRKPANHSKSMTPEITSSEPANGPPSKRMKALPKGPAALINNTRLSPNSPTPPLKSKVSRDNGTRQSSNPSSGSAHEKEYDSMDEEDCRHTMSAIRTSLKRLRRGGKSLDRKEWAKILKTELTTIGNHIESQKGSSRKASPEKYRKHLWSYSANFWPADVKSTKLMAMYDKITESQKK
# test: ScCHD-1 Enzyme Inhibition Assay; note: in the data most compounds retested in dose-response had high values
# Type: functional
# Parameters: scale not given: direction of the effect not stated beside the values
# measurement.parameters: 30 µM
value.kind: Percent Effect

compound	observed.value
Cc1cccc(C2(CNC(=O)CCNS(C)(=O)=O)CCCC2)c1	-5.61%
O=C(Cc1ccc(F)cc1)NCCNCC1CNc2ccnn2C1 (configuration not stated)	-7.92%
COCCO[C@@H]1CCN(Cc2csc(C)n2)[C@H]1Cc1ccccc1	-1.36%
Cc1cc(F)ccc1CN1CCCC2(C1)OCCO2	-3.73%
Cc1noc2nc(C3CCN(Cc4ccncc4)CC3)cc(C(F)F)c12	-4.82%
Cc1ncc2c(n1)CN(CC(=O)Nc1nncs1)CC2	-4.76%
Cc1ncnc2c1CCN(c1cc(C(F)(F)F)ncn1)CC2	-7.43%
Cc1noc(C)c1CNC(=O)c1ccc(NC2CC2)nc1	-5.7%
COc1c(CNC2CCN(C(C)(C)C)CC2)c(C(C)C)nn1C	-1.24%
NC(=O)COc1cccc(C(=O)N2CCCC(n3cccn3)C2)c1 (configuration not stated)	-6.2%
NC(=O)c1cnn2c1NCC(CNCCCOc1ccccc1F)C2 (configuration not stated)	-10.9%
CN(C)CCNC(=O)c1cnc2c(c1)nc(-c1ccccc1Cl)n2C	-5.45%

---

# test.target: Protein translocase subunit SecA (Escherichia coli (strain K12))
# test: Assay to Identify E. coli SecA ATPase Inhibitors
# Type: functional
# Design: scale not given: direction of the effect not stated beside the values
# measurement.parameters: 30 µM
Potency and affinity values are given separately.
Reported values of Percent Effect for individual entries

molecule	Percent Effect / %
Cn1cnc(S(=O)(=O)NCCCN2CCOCC2)c1Cl	-3.33
NC(=O)c1cnn2c1NCC(CNCCCOc1ccccc1F)C2 (configuration not stated)	-2.54
CCCc1cc(C(=O)N(C)Cc2cnc3ccccc3n2)n(C)n1	-7.11
CCN(Cc1cccc(Cl)c1)Cn1nc(C)c2c(C)onc2c1=O	-8.55
CCCn1nc2c(cc1=O)CN(CCS(C)(=O)=O)CC2	-6.22
Cn1ncc2c1C(COCC1CC1)CN(Cc1ccc(F)cc1)C2 (configuration not stated)	-0.87
Cc1cc(C(=O)N2CCCC(n3cncn3)C2)c(C)n1C1CC1 (configuration not stated)	-2.41
CC(C)Oc1cccc(C(=O)C2CCCN(C(=O)c3ccccn3)C2)c1 (configuration not stated)	-2.58
COCC(=O)N(C)Cc1cccc(Cl)c1	-4
CN(C(=O)Cc1ccc2c(c1)OCCO2)C1CCCC1	3.58
Cc1nccn1CC1CCCN1S(=O)(=O)Cc1ccccc1 (configuration not stated)	-4.51
O=C(C1CCOCC1)N1CCc2ncnc(-c3ccc(F)cc3)c2CC1	-1.29
